Sourced from ChEMBL document CHEMBL3272008

Tested on: Mus musculus
Assay: Depression of forced motor activity in Swiss-Webster mouse at 25 mg/kg, ip after 30 mins by rotarod test relative to control
Format: functional
Conditions: route intraperitoneal
Label rule met when Activity is at or above 80%; otherwise label rule not met.

Look over these answered cases.
COMPOUND	CLASSIFICATION
O=C(c1ccc(F)cc1)[C@H]1CCN2CCCC[C@@H]2C1 (single isomer, unassigned)	rule not met
O[C@@]1(c2ccc(Cl)cc2)CCN2CCCCC2C1 (single isomer, unassigned)	rule met
O[C@]1(c2ccc(C(F)(F)F)cc2)CCN2CCCCC2C1 (single isomer, unassigned)	rule met

// inclusive: Activity at least 80%? input: O[C@]1(c2ccc(Cl)cc2)CCN2CCCCC2C1 (stereo partly drawn)
rule not met

Determine whether this compound has Activity no lower than 80%: O[C@@]1(c2ccc(C(F)(F)F)cc2)CCN2CCCCC2C1 (single isomer, unassigned)
rule met

Identify whether the reported Activity of the following compound is 80% or greater: O[C@]1(c2cccc(Cl)c2)CCN2CCCCC2C1 (single isomer, unassigned)
rule met

Could you please find out whether O[C@]1(c2cccc(C(F)(F)F)c2)CCN2CCCCC2C1 (single isomer, unassigned) has Activity that meets 80% or exceeds it?
rule met

Answer whether Activity of O[C@@]1(c2cccc(C(F)(F)F)c2)CCN2CCCCC2C1 (single isomer, unassigned) is greater than or equal to 80%.
rule met

----------
Tested on: Mus musculus
Assay: Depression of forced motor activity in Swiss-Webster mouse at 12.5 mg/kg, ip after 30 mins by rotarod test relative to control
Type: functional
Settings: route intraperitoneal
Record form. Attribute: Activity. Fill in for each entry.
Give bare numbers, in %.

COMPOUND	TARGET SYSTEM	TEST READOUT	QUANTITATIVE RESULT
O[C@]1(c2ccc(C(F)(F)F)cc2)CCN2CCCCC2C1 (single isomer, unassigned)	Mus musculus	Activity	115.2
O[C@]1(c2cccc(C(F)(F)F)c2)CCN2CCCCC2C1 (single isomer, unassigned)	Mus musculus	Activity	107.2
O=C(c1ccc(F)cc1)[C@H]1CCN2CCCC[C@@H]2C1 (single isomer, unassigned)	Mus musculus	Activity	55.5
O[C@@]1(c2ccc(C(F)(F)F)cc2)CCN2CCCCC2C1 (single isomer, unassigned)	Mus musculus	Activity	99.3

Give a short answer stating reported Activity for O[C@]1(c2cccc(Cl)c2)CCN2CCCCC2C1 (single isomer, unassigned) .
88.6

----------
Test system: Mus musculus
Test: Depression of spontaneous motor activity in Swiss-Webster mouse at 12.5 mg/kg, ip by photocell cage test relative to control
Type: functional
Conditions: route intraperitoneal
Kindly supply the reported Activity values for the records listed here.
One number for each entry, in %.

Solved cases below.
COMPOUND	TARGET SYSTEM	RESULT UNIT	QUANTITATIVE RESULT
O=C(c1ccc(F)cc1)[C@H]1CCN2CCCC[C@@H]2C1 (single isomer, unassigned)	Mus musculus	%	48.5
O[C@]1(c2cccc(C(F)(F)F)c2)CCN2CCCCC2C1 (single isomer, unassigned)	Mus musculus	%	70.3

# context switch: different compound, same Activity
Entry O[C@@]1(c2ccc(C(F)(F)F)cc2)CCN2CCCCC2C1 (single isomer, unassigned) needs its Activity filled in; supply it.
49.7
